Origin of measurements: ChEMBL document CHEMBL1201862

test system: NCI-H460; test: NCI tumour cell line growth inhibition, 48 h
Activity calls are given as the source filed them. No stated cut-off is given here; in the data, active = GI50 up to about 1.1 µM and inactive = higher.
The reply should be one of these categories: t = active, f = inactive

Query: Test call for this compound, please: `O=C(Nn1c(-c2ccccc2)nc2ccccc2c1=O)c1ccccc1O`
Response: f

Query: Test call for this compound, please: `C=C/C=C/NC(=O)OCc1ccccc1`
Response: f

Query: Test call for this compound, please: CC1CC[C@@]2(OC1)OC1C[C@H]3[C@@H]4CC[C@H]5CC(OC6OC(CO)C(OC7OC(CO)C(O)C(O)C7OC7OC(CO)C(O)C(O)C7O)C(O)C6O)CCC5(C)[C@H]4CCC3(C)C1[C@@H]2C (stereo partly specified)
Response: f

Query: Test call for this compound, please: CCOC(=O)N1CCc2cc(OC)c(OC)c3c2C1CC3=O (stereo unspecified)
Response: f

Query: Test call for this compound, please: `CCC/C(Cl)=N/OC(=O)Nc1cccc(F)c1`
Response: f

Query: Test call for this compound, please: CN(C)CCOc1ccc2[nH]c(C(=O)N3CC(CCl)c4c3cc(N)c3ccccc43)cc2c1 (stereo unspecified)
Response: t

Query: Test call for this compound, please: `COc1ccc2c(c1)CCCc1c-2nc2ccccc2c1N`
Response: f

Query: Test call for this compound, please: Cn1nc(C(=O)N2CC(CCl)c3c2cc(N)c2ccccc32)cc1NC(=O)Nc1cc(C(=O)N2CC(CCl)c3c2cc(N)c2ccccc32)nn1C (stereo unspecified)
Response: t

Query: Test call for this compound, please: `O=C(N/N=C\c1cccc2ccccc12)Nc1cccc2ccccc12`
Response: f

Query: Test call for this compound, please: `O=c1c2cc(I)ccc2nc(-c2cccs2)n1-c1ccc(O)cc1`
Response: f

Query: Test call for this compound, please: `C=CCn1c(=S)sc2c(O)ncnc21`
Response: f

Query: Test call for this compound, please: `Cc1nc(Nc2ccc(Cl)cc2)sc1C(=O)NNC(=S)NN`
Response: f

Query: Test call for this compound, please: COc1ccc(-c2coc3cc(O)cc(O)c3c2=O)cc1 [BIOCHANIN]
Response: f

Query: Test call for this compound, please: `Cc1oc(N)c(S(=O)(=O)c2cc3ccccc3[n+]([O-])c2N)c1C`
Response: f

Query: Test call for this compound, please: CC(=O)O[C@H]1CC[C@@]2(C)C(=CC[C@@H]3C2CC[C@]2(C)C(=O)NC(=O)CC32)C1 (stereo partly specified)
Response: f

Query: Test call for this compound, please: `Clc1cc2n[se]nc2cc1Cl`
Response: f

Query: Test call for this compound, please: `O=C(NCCCNC(=O)c1ccc2cc(O)c(O)cc2c1)c1ccc2cc(O)c(O)cc2c1`
Response: f

Query: Test call for this compound, please: `CC(=N\N)/C(C)=N/N=C(C)/C(C)=N/N`
Response: f

Query: Test call for this compound, please: `CCOC(=O)c1c(O)cn2c1[nH]c1cccc3cccc2c31`
Response: f

Query: Test call for this compound, please: `Nc1nc(=S)[nH]c2nc3c(c(-c4ccccc4)c12)CCCC3`
Response: f

Query: Test call for this compound, please: `C[N+](C)(N)c1nc(N)c(C#N)c(C#N)c1C#N`
Response: f

---

test system: TK-10; assay: NCI tumour cell line growth inhibition, 48 h
Active and inactive are the calls of the source. No stated cut-off is given here; in the data, active = GI50 up to about 1.1 µM and inactive = higher.
Reported endpoint: GI50

Known GI50 results, listed for orientation:
# Compound, GI50
records = [
    ("COC(=O)c1ccc(S)c(S(=O)(=O)Nc2nc(N)n[nH]2)c1", "> 100 µM (inactive)"),
    ("O=C(O)Cc1ccc2nc(COC(=O)c3ccccc3)sc2c1", "> 100 µM (inactive)"),
    ("[N-]=[N+]=NCc1cccc(Nc2cc(=O)[nH]c(=O)[nH]2)c1", "> 100 µM (inactive)"),
    ("O=C(O)c1ccc(S(=O)(=O)c2ccccc2[N+](=O)[O-])cc1", "> 10 µM (inactive)"),
    ("COC(=O)/C1=C/c2c([nH]c3ccccc23)/C(C(=O)OC)=C\\c2c1[nH]c1ccccc21", "32.6 µM (inactive)"),
    ("COc1ccccc1C1C(C(=O)O)=C(CO)Oc2cc3c(cc21)OCO3 (stereo unspecified)", "> 100 µM (inactive)"),
    ("O=C1NC2(C=Cc3c(ccc4ccccc34)O2)Oc2ccccc21 (stereo unspecified)", "21.5 µM (inactive)"),
    ("O=C(N/N=C\\c1cccc2ccccc12)Nc1cccc2ccccc12", "19.9 µM (inactive)"),
    ("Cn1cc(C(=O)c2nccc3c2cnc2ccccc23)ccc1=O", "> 100 µM (inactive)"),
    ("NC1=NS(=O)(=O)Nc2nc(-c3ccc(Cl)cc3)c(-c3ccc(Cl)cc3)nc21", "> 100 µM (inactive)"),
]

Query: So what does the record say about GI50 for `O=S(=O)(OI(O)CC(F)(F)F)C(F)(F)F` ?
Response: > 100 µM (inactive)

Query: So what does the record say about GI50 for `Cc1nc(Nc2ccc(Cl)cc2)sc1C(=O)NNC(=S)NN` ?
Response: 20.9 µM (inactive)

Query: So what does the record say about GI50 for `O=C1Nc2c(Cl)cc(Cl)cc2/C1=N/Nc1ccccc1[N+](=O)[O-]` ?
Response: 22.6 µM (inactive)
